The measured values listed here are drawn from patent US20250388574A1.

STUDY_SYSTEM: hTREM2 (Homo sapiens)
Sequence (Q9NZC2 19-230): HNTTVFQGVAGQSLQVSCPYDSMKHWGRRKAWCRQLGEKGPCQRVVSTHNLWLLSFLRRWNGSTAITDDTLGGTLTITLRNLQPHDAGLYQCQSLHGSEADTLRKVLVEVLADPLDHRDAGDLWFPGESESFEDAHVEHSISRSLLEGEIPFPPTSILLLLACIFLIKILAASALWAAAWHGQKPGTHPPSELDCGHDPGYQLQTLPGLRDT
Sequence (O43914 22-113 partner): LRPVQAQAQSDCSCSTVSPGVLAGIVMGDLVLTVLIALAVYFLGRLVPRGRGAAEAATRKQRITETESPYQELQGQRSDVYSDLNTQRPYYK
PROTOCOL_NOTES: Phospho-Syk AlphaScreen/AlphaLISA assay in TREM2 and DAP12 overexpressing HEK293 cells (Example A1)
Format: cell-based
Design: expressed in transfected cells
ASSAY_SETUP: HEK293 cells, read-out: hTREM2 EC50
OBSERVABLE: EC50

{"COMPOUND": "Cc1c([C@H]2CN(c3cc4nc(C)n(C)c(=O)c4c(-c4ccc(Cl)cc4F)n3)CCO2)cnn1C (single isomer, unassigned) [Example 67]", "OBSERVABLE": "EC50", "ASSAY_VALUE": "3000 to 100000 nM"}
{"COMPOUND": "Cc1nc2cc(N3CCO[C@H](c4ccsc4)C3)nc(-c3ccc(Cl)cc3F)c2c(=O)n1C [Example 240]", "OBSERVABLE": "EC50", "ASSAY_VALUE": "3000 to 100000 nM"}
{"COMPOUND": "Cn1cc([C@H]2CN(c3cc4nc(C(F)(F)F)n(C)c(=O)c4c(-c4ccc(Cl)cc4F)n3)CCO2)cn1", "OBSERVABLE": "EC50", "ASSAY_VALUE": "50 to 500 nM"}
{"COMPOUND": "CCn1cc([C@@H]2CN(c3cc4nc(C)n(C)c(=O)c4c(-c4ccc(Cl)cc4F)n3)CCO2)cn1 [Example 197]", "OBSERVABLE": "EC50", "ASSAY_VALUE": "50 to 500 nM"}
{"COMPOUND": "Cc1nc2cc(N3CCO[C@H]([C@H]4CCOC4)C3)nc(-c3ccc(Cl)cc3F)c2c(=O)n1C (single isomer, unassigned)", "OBSERVABLE": "EC50", "ASSAY_VALUE": "50 to 500 nM"}
{"COMPOUND": "Cc1nc2cc(N3CCO[C@H](c4ccccn4)C3)nc(-c3ccc(Cl)cc3F)c2c(=O)n1C", "OBSERVABLE": "EC50", "ASSAY_VALUE": "500 to 3000 nM"}
{"COMPOUND": "Cc1nc2cc(N3CCO[C@@H](c4ccnc(Cl)c4)C3)nc(-c3ccc(Cl)cc3F)c2c(=O)n1C (single isomer, unassigned)", "OBSERVABLE": "EC50", "ASSAY_VALUE": "50 to 500 nM"}
{"COMPOUND": "Cc1nc2cc(N3CCC[C@H](N4CCCC4)C3)nc(-c3ccc(Cl)cc3F)c2c(=O)n1C", "OBSERVABLE": "EC50", "ASSAY_VALUE": "3000 to 100000 nM"}
{"COMPOUND": "Cn1cc([C@H]2CN(c3cc4ncn(C)c(=O)c4c(-c4ccc(Cl)cc4F)n3)CCO2)cn1", "OBSERVABLE": "EC50", "ASSAY_VALUE": "500 to 3000 nM"}
{"COMPOUND": "Cc1nc2cc(N3CCCC(c4cnco4)C3)nc(-c3ccc(Cl)cc3F)c2c(=O)n1C (centres unmarked)", "OBSERVABLE": "EC50", "ASSAY_VALUE": "50 to 500 nM"}
{"COMPOUND": "Cc1nc([C@@H]2CN(c3cc4nc(C)n(C)c(=O)c4c(-c4ccc(Cl)cc4F)n3)CCO2)no1 (single isomer, unassigned) [Example 57]", "OBSERVABLE": "EC50", "ASSAY_VALUE": "500 to 3000 nM"}
{"COMPOUND": "CCCn1c(C)nc2cc(N3CCO[C@@H](c4cnn(C)c4)C3)nc(-c3ncc(Cl)cc3F)c2c1=O", "OBSERVABLE": "EC50", "ASSAY_VALUE": "50 to 500 nM"}
{"COMPOUND": "Cc1cnc2n1CCN(c1cc3nc(C)n(C)c(=O)c3c(-c3ccc(Cl)cc3F)n1)C2", "OBSERVABLE": "EC50", "ASSAY_VALUE": "3000 to 100000 nM"}
{"COMPOUND": "Cc1nc2cc(N3C[C@@H](c4ccsc4)O[C@@H](C)C3)nc(-c3ccc(Cl)cc3F)c2c(=O)n1C (single isomer, unassigned)", "OBSERVABLE": "EC50", "ASSAY_VALUE": "500 to 3000 nM"}
